- assaySummary: Non-GLP monkey pharmacokinetics
- Assay type: in vivo
- details: cynomolgus monkey, plasma; cynomolgus monkeys, IV 1 mg/kg, average of 3
propertyLabel: clearance
Remember to put the unit after the number in your answer.

Looking for the measured clearance of CN(C)[C@@H]1C(O)=C(C(N)=O)C(=O)[C@@]2(O)C(O)=C3C(=O)c4c(O)c5c(c(F)c4C[C@H]3C[C@@H]12)CN(C(C)(C)C)C5 , can you help?
1.86 mL/min/kg

* * *

- Test system: Gram-negative and Gram-positive organisms (clinical isolates)
- assaySummary: Broth microdilution MIC against clinical isolates (CLSI M7-A8), Table 9
- Type: cell-based
- details: Streptococcus intermedius, n=30
Listed compounds paired with reported MIC50
Quick note: give the figure in µg/mL, leave out the unit.

Here is how some compounds turned out for MIC50.
smilesRepresentation: CC(=O)NC[C@H]1CN(c2ccc(N3CCOCC3)c(F)c2)C(=O)O1
MIC50 (µg/mL): 1
//
smilesRepresentation: CN(C)c1cc(NC(=O)CNC(C)(C)C)c(O)c2c1C[C@H]1C[C@H]3[C@H](N(C)C)C(O)=C(C(N)=O)C(=O)[C@@]3(O)C(O)=C1C2=O
MIC50 (µg/mL): 0.03
//
smilesRepresentation: C[C@H]1COc2c(N3CCN(C)CC3)c(F)cc3c(=O)c(C(=O)O)cn1c23
MIC50 (µg/mL): 1

Now take the following compound into account.
Field: MIC50 (Gram-negative and Gram-positive organisms (clinical isolates)). Entry: C[C@@H](O)[C@H]1C(=O)N2C(C(=O)O)=C(S[C@@H]3CN[C@H](C(=O)Nc4cccc(C(=O)O)c4)C3)[C@H](C)[C@H]12
0.06
